- SUBJECT OF TEST: human F508del-CFTR (Homo sapiens, UniProt P13569, DEL508-508)
- Sequence (P13569 with tags, fused parts or gaps DEL508-508): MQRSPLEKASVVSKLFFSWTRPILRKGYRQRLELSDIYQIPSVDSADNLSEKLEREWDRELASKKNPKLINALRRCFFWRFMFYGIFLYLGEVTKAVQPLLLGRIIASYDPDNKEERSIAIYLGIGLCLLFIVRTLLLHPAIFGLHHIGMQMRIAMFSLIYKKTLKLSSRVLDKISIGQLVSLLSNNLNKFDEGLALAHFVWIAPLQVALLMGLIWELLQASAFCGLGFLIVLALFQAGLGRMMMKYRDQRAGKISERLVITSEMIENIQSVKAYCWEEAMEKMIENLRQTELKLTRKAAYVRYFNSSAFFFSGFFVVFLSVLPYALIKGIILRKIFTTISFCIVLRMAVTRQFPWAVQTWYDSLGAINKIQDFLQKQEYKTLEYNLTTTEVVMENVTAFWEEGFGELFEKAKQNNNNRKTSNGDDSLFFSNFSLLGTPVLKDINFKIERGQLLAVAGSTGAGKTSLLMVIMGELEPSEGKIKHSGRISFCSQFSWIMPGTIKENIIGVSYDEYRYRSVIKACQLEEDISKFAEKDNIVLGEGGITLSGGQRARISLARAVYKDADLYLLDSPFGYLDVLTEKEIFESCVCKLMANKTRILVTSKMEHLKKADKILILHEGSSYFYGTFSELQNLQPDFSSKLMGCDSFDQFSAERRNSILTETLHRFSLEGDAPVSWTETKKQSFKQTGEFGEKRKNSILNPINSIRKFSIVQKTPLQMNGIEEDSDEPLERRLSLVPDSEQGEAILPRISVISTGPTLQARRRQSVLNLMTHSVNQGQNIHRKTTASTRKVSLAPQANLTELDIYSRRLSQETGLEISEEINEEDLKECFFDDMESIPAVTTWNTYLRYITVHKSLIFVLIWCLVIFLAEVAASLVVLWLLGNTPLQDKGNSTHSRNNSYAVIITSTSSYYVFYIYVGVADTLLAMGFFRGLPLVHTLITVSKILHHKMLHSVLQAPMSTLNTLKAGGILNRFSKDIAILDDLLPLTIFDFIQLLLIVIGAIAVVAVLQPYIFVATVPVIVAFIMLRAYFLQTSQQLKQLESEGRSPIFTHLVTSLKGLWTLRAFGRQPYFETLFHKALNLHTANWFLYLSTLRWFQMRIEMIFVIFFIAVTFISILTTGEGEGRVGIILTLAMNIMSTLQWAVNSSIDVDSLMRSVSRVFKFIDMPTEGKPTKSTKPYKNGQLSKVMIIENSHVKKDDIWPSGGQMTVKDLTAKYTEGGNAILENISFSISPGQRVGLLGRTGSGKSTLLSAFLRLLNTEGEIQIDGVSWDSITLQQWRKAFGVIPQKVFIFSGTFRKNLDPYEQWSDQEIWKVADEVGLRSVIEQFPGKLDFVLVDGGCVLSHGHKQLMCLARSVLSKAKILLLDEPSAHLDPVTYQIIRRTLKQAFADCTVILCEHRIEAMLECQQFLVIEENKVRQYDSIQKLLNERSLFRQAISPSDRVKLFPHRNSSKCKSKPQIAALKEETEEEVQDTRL
- EXPERIMENTAL PROTOCOL: F508del-CFTR cell surface expression (corrector activity), DiscoveRx ß-galactosidase complementation chemiluminescence assay in recombinant U2OS cell line;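 also: U2OS cells co-expressing ProLink-tagged F508del-CFTR and a membrane-anchored enzyme acceptor, where more surface CFTR restores β-galactosidase activity measured by chemiluminescence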
- COND: EC50, F508del-CFTR cell surface expression, U2OS cells, 16h compound incubation; geomean values
MEASURED ATTRIBUTE: EC50 (nM)
State just the number; it will be interpreted in nM.

Example results:
| MOLECULE | SUBJECT OF TEST | EC50 (nM) |
| --- | --- | --- |
| CC(C)C[C@H]1C(=O)N2CCN(C3CC3)C[C@@H]2C(=O)N[C@H](Cc2ccccc2)COc2cnc3ccccc3c2C(=O)N[C@H](C(=O)NCCc2cccc(OC(F)F)c2)CC(=O)N1C [Example 398] | human F508del-CFTR (Homo sapiens, UniProt P13569, DEL508-508) | 125 |
| Cc1cc(CCNC(=O)[C@@H]2CC(=O)N(C)[C@@H](CC(C)C)C(=O)N3CCNC[C@@H]3C(=O)N[C@H](Cc3ccccc3)COc3cnc4ccccc4c3C(=O)N2)on1 [Example 727] | human F508del-CFTR (Homo sapiens, UniProt P13569, DEL508-508) | 5050 |

Input: Look up EC50: COc1cccc(CCNC(=O)[C@@H]2CC(=O)N(C)[C@@H](CC(C)C)C(=O)N(C)C3(CC3)C(=O)N[C@H](Cc3ccccc3)COc3ccnc(OC)c3C(=O)N2)c1 [Example 438]
Output: 474
